Listed here: compounds with reported IC50 for AChE (from electric eel) (Electrophorus electricus).
Please format your answer as a value with the unit trailing.

Please review the following examples before continuing.
[
  {
    "compound": "O=C(C=Cc1ccccc1)Nc1cc[n+](Cc2cccc(F)c2)cc1.[Br-] [Compound 5d]",
    "IC50": "93.5 nM"
  },
  {
    "compound": "COc1ccc(/C=C/C(=O)Nc2cc[n+](Cc3cccc(F)c3)cc2)cc1OC.[Br-] [Compound 5k]",
    "IC50": "20.6 nM"
  },
  {
    "compound": "Cc1cccc(C[n+]2ccc(NC(=O)C=Cc3ccccc3)cc2)c1.[Br-] [Compound 5b]",
    "IC50": "103 nM"
  },
  {
    "compound": "COc1ccc(/C=C/C(=O)Nc2cc[n+](Cc3ccccc3)cc2)cc1OC.[Br-] [Compound 5h]",
    "IC50": "135 nM"
  },
  {
    "compound": "COc1ccc(/C=C/C(=O)Nc2cc[n+](Cc3cccc(Br)c3)cc2)cc1OC.[Br-] [Compound 5m]",
    "IC50": "92.6 nM"
  }
]

Next, consider the following compound.
Fill in IC50 for COc1ccc(/C=C/C(=O)Nc2cc[n+](Cc3ccc(F)cc3)cc2)cc1OC.[Br-] [Compound 5l] tested with AChE (from electric eel) (Electrophorus electricus).
Sequence (O42275 24-633): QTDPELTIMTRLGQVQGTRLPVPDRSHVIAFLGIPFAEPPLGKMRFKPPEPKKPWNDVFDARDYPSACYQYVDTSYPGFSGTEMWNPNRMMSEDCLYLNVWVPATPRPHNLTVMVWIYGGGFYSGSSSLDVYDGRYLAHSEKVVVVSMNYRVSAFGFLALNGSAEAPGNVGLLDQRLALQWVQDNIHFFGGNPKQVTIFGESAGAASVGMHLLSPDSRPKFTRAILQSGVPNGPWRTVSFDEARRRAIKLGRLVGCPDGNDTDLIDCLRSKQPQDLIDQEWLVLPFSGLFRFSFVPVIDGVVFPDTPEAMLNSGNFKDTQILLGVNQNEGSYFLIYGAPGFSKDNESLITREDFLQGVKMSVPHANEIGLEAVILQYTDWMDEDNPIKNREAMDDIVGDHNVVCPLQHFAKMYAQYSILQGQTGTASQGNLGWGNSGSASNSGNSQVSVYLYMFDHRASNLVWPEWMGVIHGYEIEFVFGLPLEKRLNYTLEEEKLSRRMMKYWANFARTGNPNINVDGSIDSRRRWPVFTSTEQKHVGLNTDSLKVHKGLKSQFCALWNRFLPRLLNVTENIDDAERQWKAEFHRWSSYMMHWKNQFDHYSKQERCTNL
12.1 nM

----------
# system.name: Aβ (1–42) (Homo sapiens)
# Sequence (P05067 672-713): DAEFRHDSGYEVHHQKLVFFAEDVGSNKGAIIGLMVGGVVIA
# assay.explanation: Inhibition of Aβ (1–42) self-induced aggregation (Thioflavin T assay)
# experimental.context: read-out: Aβ (1–42) aggregation inhibition (%)
compounds and their reported inhibition at 20 µM
Report the figure in % without appending any unit label.

Example entries begin here.
[
  {
    "compound": "COc1ccc(/C=C/C(=O)Nc2cc[n+](Cc3ccc(Br)cc3)cc2)cc1OC.[Br-]",
    "system.name": "Aβ (1–42) (Homo sapiens)",
    "inhibition at 20 µM [%]": 66.3
  },
  {
    "compound": "O=C(C=Cc1ccccc1)Nc1cc[n+](Cc2ccc(F)cc2)cc1.[Br-]",
    "system.name": "Aβ (1–42) (Homo sapiens)",
    "inhibition at 20 µM [%]": 52.8
  },
  {
    "compound": "COc1ccc(/C=C/C(=O)Nc2cc[n+](Cc3cccc(Br)c3)cc2)cc1OC.[Br-]",
    "system.name": "Aβ (1–42) (Homo sapiens)",
    "inhibition at 20 µM [%]": 62.8
  },
  {
    "compound": "COc1cc(/C=C/C(=O)CC(=O)/C=C/c2ccc(O)c(OC)c2)ccc1O [Curcumin, reference compound]",
    "system.name": "Aβ (1–42) (Homo sapiens)",
    "inhibition at 20 µM [%]": 54.6
  },
  {
    "compound": "O=C(C=Cc1ccccc1)Nc1cc[n+](Cc2ccc(Br)cc2)cc1.[Br-]",
    "system.name": "Aβ (1–42) (Homo sapiens)",
    "inhibition at 20 µM [%]": 57.2
  }
]

Lab note: next compound to report on.
Supply inhibition at 20 µM value. Item: Cc1cccc(C[n+]2ccc(NC(=O)C=Cc3ccccc3)cc2)c1.[Br-]
48.5

Source of measurements: paper PMC6009898
